Biological target: PSMA (PSMA+ PC3-Pip cells) (Homo sapiens)
Construct: host or cells: PC3-Pip (PSMA+ subline of PC-3)
Sequence (Q04609 whole entry): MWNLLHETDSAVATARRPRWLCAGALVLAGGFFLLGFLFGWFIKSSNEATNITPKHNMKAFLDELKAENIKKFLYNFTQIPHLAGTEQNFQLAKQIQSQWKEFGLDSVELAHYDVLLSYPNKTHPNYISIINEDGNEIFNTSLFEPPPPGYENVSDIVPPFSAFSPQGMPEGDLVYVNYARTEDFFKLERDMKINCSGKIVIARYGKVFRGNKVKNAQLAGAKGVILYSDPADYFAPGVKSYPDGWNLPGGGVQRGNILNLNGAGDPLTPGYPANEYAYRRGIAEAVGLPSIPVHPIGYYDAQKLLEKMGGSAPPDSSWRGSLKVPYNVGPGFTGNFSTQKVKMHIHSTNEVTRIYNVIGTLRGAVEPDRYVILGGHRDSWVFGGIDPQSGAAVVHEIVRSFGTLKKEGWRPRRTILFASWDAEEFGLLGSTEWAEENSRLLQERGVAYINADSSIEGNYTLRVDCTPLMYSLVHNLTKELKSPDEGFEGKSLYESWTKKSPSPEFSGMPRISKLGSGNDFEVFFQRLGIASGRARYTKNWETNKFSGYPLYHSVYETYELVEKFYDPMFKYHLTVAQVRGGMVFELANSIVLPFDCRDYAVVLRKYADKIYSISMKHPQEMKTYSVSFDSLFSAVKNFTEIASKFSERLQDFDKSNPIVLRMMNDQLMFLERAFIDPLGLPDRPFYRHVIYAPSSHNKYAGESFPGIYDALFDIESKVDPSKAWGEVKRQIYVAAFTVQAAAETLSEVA
Experiment: 68Ga-PSMA-11 competition radioligand binding assay
Conditions: Table 2 Experiment 1, unlabeled
measured parameter: IC50 (nM)
Output spec: scalar in nM, unitless text.

Task: Entry [N-]=[N+]=NCCCCCCOC(=O)NCCCC[C@H](NC(=O)N[C@@H](CCC(=O)O)C(=O)O)C(=O)O [Azido-ACUPA] has what IC50?
Result: 350

* * *

Target: PSMA (PSMA+ PC3-Pip cells) (Homo sapiens)
Construct: host or cells: PC3-Pip (PSMA+ subline of PC-3)
Experiment: 68Ga-PSMA-11 competition radioligand binding assay
Settings: Table 10 Experiment 1, unlabeled
measured parameter: pIC50
API: returns pIC50 as number; meaning -log10 of concentration in mol/L.

Task: // fetch PSMA (PSMA+ PC3-Pip cells) (Homo sapiens) pIC50 for O=C(O)CC[C@H](NC(=O)N[C@@H](CCCCNC(=O)Nc1ccc(I)cc1)C(=O)O)C(=O)O [PSMA-2]
Result: 7.59

Cited source for all entries: patent US20260061082A1
